Reported IC50 values follow for various compounds
target: human EGFR L858R (NIH/3T3 cells) (Homo sapiens, UniProt P00533, L858R); assay: EGFR target modulation in engineered NIH/3T3 cell lines (phospho-EGFR Y1068 AlphaLISA), EGFR L858R; type: cell-based; details: engineered NIH/3T3 cells, read-out: NIH3T3 IC50 (μM) EGFR (L858R)
Sequence (P00533 25-1210 L858R): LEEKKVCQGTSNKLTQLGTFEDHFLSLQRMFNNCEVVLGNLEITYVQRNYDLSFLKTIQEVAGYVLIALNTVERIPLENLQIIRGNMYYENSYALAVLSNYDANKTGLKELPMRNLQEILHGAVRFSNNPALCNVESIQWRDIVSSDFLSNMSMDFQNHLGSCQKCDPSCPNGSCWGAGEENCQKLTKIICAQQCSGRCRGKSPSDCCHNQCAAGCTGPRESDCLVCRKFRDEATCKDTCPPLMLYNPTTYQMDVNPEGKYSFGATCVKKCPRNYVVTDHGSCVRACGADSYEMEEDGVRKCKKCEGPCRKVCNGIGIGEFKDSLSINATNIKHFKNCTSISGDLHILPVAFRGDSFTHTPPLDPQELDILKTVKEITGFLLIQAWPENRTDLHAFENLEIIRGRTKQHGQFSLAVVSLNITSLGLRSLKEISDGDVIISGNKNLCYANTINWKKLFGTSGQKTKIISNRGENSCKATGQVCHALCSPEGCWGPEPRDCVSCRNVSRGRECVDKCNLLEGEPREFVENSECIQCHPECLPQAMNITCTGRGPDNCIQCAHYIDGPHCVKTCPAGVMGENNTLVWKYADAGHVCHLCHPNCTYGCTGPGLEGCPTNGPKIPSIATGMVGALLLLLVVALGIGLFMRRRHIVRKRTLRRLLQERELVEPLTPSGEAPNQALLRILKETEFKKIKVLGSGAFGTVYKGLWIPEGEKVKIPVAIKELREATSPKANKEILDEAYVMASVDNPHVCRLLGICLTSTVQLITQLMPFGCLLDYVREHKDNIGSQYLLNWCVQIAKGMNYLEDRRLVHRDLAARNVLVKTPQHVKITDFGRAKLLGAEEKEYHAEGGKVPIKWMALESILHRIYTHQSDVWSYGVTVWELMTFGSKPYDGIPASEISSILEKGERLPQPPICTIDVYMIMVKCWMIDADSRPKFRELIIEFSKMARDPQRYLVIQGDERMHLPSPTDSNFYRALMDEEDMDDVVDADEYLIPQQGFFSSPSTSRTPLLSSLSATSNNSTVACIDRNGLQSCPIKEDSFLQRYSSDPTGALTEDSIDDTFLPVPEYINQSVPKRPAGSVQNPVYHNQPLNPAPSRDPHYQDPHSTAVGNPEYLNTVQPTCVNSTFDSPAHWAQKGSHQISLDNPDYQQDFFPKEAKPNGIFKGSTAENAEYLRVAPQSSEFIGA
ASSAY_METRIC: IC50 (µM)

>>> df
                                   compound  assay_metric  censor_symbol  recorded_value
0  Cc1cccc2nc(NC(=O)c3ccnc(C(C)(C)C)c3)n(C3CCCCN(C(=O)/C=C/CN(C)C)C3)c12 (stereo not shown) [Example 17-61]          IC50              <           0.001
1  Cc1cccc2nc(NC(=O)c3cccc(Cl)c3)n(C3CCCCN(C(=O)/C=C/CN(C)C)C3)c12 (stereo not shown) [Example 17-43]          IC50              =           0.014
2  C=CC(=O)N1CCCC[C@@H](n2c(NC(=O)c3ccnc(C)c3)nc3cc(CN4CCS(=O)(=O)CC4)cc(C)c32)C1 [Example 17-155]          IC50              =           0.002
3  Cc1cccc2nc(NC(=O)c3cccc(C(F)(F)F)c3)n([C@H]3COCCN(C(=O)/C=C/CN(C)C)C3)c12 [Example 17-6]          IC50              =             0.7
4  Cc1cccc2nc(NC(=O)c3cccc(C(F)(F)F)c3)n([C@@H]3COCCN(C(=O)/C=C/CN(C)C)C3)c12 [Example 17-7]          IC50              =           0.015
5  Cc1cccc2nc(NC(=O)c3ncccn3)n(C3CCCCN(C(=O)/C=C/CN(C)C)C3)c12 (stereo not shown) [Example 17-36]          IC50              =             3.5
6  C=CC(=O)N1CCCC[C@@H](n2c(NC(=O)c3ccnc(C)c3)nc3cc(CN4CC(OC)C4)cc(C)c32)C1 [Example 17-154]          IC50              <           0.001
